SYSTEM: Mitogen-activated protein kinase 10 (Homo sapiens) (UniProt P53779)
Sequence (P53779 whole entry): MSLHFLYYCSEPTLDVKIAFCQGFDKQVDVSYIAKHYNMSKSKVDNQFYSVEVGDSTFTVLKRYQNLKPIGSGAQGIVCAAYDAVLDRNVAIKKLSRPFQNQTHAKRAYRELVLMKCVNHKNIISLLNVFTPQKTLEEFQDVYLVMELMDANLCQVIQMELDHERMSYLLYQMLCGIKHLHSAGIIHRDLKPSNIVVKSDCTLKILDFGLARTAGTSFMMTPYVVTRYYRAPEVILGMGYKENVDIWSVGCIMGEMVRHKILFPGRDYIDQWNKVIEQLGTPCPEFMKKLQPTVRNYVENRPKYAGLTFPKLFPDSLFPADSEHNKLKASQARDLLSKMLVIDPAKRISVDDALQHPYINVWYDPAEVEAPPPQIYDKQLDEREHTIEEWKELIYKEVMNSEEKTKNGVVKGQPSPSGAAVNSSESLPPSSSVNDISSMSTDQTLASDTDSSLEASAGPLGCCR
MEASUREMENT_CONDITIONS: at 10 µM
Can you tell me residual activity for the items I'm about to list?
Give the value, in units of %, as a plain number.

Task item: Fill in the recorded residual activity for this molecule, with Mitogen-activated protein kinase 10 (Homo sapiens) (UniProt P53779) as test system: N#C/C(=C(\N)Sc1ccc(N)cc1)c1ccccc1C(F)(F)F
Reply: 83

Task item: # iterate: O=C(Nc1cccc(Nc2nccc(Nc3cccc(C(F)(F)F)c3)n2)c1)C1CC1
Reply: -3

Task item: Please give the result for Ic1cccc(CSc2nnc(-c3ccncc3)o2)c1 too.
Reply: 68

Task item: Try this molecule too: C[C@@H](N)[C@H]1CC[C@H](C(=O)Nc2ccncc2)CC1
Reply: 86

Task item: Next entry: Nc1n[nH]c2nnc(-c3c(-c4ccccc4)nn4ccccc34)cc12
Reply: 0

Task item: Another molecule to check: CC(=O)O/N=C1\C(=C2\C(=O)Nc3cc(Br)ccc32)Nc2ccccc21
Reply: 61

Task item: Would you kindly repeat that for COc1cc2ncc(-c3ccccc3)nc2cc1OC ?
Reply: 79

Task item: Also, COc1ccc(C(=O)Nc2sc3c(c2C(N)=O)CCCC3)cc1OC please.
Reply: 69
